# protocol_description: qHTS to identify inhibitors of the type 1 interferon - major histocompatibility complex class I in skeletal muscle: primary screen against the NCATS Mechanism Interrogation Plate v5.0 (MIPE) Libary (AID 1347411); note: nearly all actives have a fitted effect of over 65% in size
# reported_conditions: iHSKM cells + IFN-b, HiBiT-tagged MHC-I luminescence, 24 h; series mostly up to 45.8 µM
Results filed as inconclusive are left out. Activity calls are given as the source filed them. Calls come from the whole dose curve; as a rule, active = well fitted inhibition curve with a large enough effect; inconclusive = small, poorly fitted or top-dose-only effect; inactive = no such curve, though single readings can be large or run the other way.
Write down one outcome, taken from active, inactive

{"columns": ["compound", "group_label"],
 "data": [
  ["COC(=O)[C@@]12OC[C@]34[C@H]([C@@H](O)[C@@H]1O)[C@@]1(C)CC(=O)C(O)=C(C)[C@@H]1C[C@H]3OC(=O)[C@H](OC(=O)/C=C(\\C)C(C)C)[C@@H]24", "active"]
]}

Outcome logged for COC12C(COC(N)=O)C3=C(C(=O)C(C)=C(N)C3=O)N1CC1C2N1C (configuration not stated) in this assay: inactive

Record request — test call for `O=C(O)CNC(=O)C1C(=O)N(C2CCCCC2)C(=O)N(C2CCCCC2)C1=O` inactive

For this compound, state the assay outcome: `C[C@@]12OC(=O)[C@]1([C@@H](O)[C@@H]1C=CCCC1)NC(=O)[C@@H]2CCCl` active

// param item: CCCCCCC(C)(C)c1cc(O)c2c(c1)OC(C)(C)C1CC=C(CO)C[C@H]21 (some centres not stated) ; yields the recorded call active

Status in this test for `C[C@]12COC(=O)C[C@@H]1CC[C@@H]1[C@@H]2CC[C@@]2(C)[C@H]1CC[C@]2(C)O` ? inactive

Each compound tested received a call. Report the one for `C/C=C(\C)C(=O)N[C@@H](c1ccccc1)[C@@H](O)C(=O)O[C@H]1C[C@@]2(O)[C@@H](OC(=O)c3ccccc3)[C@@H]3[C@]4(OC(C)=O)CO[C@@H]4C[C@H](O)[C@@]3(C)C(=O)[C@H](OC(C)=O)C(=C1C)C2(C)C` . inactive

* * *

# protocol_description: Panc-1005 Cancer Cell Toxicity qHTS against the NCATS CANVASS Library (AID 1347349); note: nearly all actives have a fitted effect of over 60% in size; note: potency is the fitted concentration of half-maximal effect
# reported_conditions: Panc-1005 viability, CellTiter-Glo luminescence, 72 h; series mostly up to 38.3 µM
Inconclusive results are not listed. Activity calls are given as the source filed them. The call rests on the fitted dose curve; in most records, active means well fitted cell-killing curve with a large enough effect; inconclusive means small, poorly fitted or top-dose-only effect; inactive means flat fitted curve, though single readings scatter. Starred links: 1 amine or outer side, 2 acyl side, 3 side chain; linkers in the order of their positions; H or OH if unused. Positions of bridges follow the written chain, without caps; N, C: chain ends. Non-standard residues stand in square brackets, D forms with d. Residues, ends and D or L forms follow the SMILES beside them. ξ: configuration not given here. *: point of attachment. X3 = C[C@@H](Oc1ccc([C@H](N[*:1])C(=O)[*:2])cc1)[C@]1(/C=C\C(=O)[*:3])CO1; d(aIle) = CC[C@H](C)[C@@H](N)C(=O)O; X2 = CC(C)[C@@H](O)C(C)C(=O)*; ξNMeF = CNC(Cc1ccccc1)C(=O)O; ξT = CC(O)C(N)C(=O)O; ξS = NC(CO)C(=O)O
endpoint: Potency

# count of solved cases: 5
{"columns": ["compound", "Potency"],
 "data": [
  ["C=C[C@H]1CN2CCc3c([nH]c4cccc(OC)c34)[C@@H]2C[C@@H]1/C(=C\\OC)C(=O)OC", "inactive"],
  ["C/C=C(\\C)C(=O)O[C@@H]1[C@@H](O)[C@@H]2O[C@H]3[C@H](O[C@@H](CCCCC)CCCCCCC(=O)CCC(=O)OC[C@@H](O2)[C@H]1OC(=O)/C=C/c1ccccc1)O[C@H](C)[C@H](OC(C)=O)[C@@H]3O", "0.0335 µM (active)"],
  ["CC(C)CC1C(=O)O[C@H](C(C)C)C(=O)N(C)C(CC(C)C)C(=O)O[C@@H](C(C)C)C(=O)N(C)C(CC(C)C)C(=O)O[C@H](C(C)C)C(=O)N(C)C(CC(C)C)C(=O)O[C@@H](C(C)C)C(=O)N1C (some centres undefined)", "6.68 µM (active)"],
  ["COC1C(O)C(C)OC(OC2C(Oc3cccc4c(O)c5c(=O)oc6ccc(C)c7c(=O)oc(c34)c5c67)OC(C)C(O)C2O)C1O (centres undefined)", "16.8 µM (active)"],
  ["C=CC(C)(C)[C@@]12C[C@H]3C(=O)N/C(=C\\c4cnc[nH]4)C(=O)N3[C@@H]1Nc1ccccc12", "inactive"]
]}

Returns the measured Potency for the input compound. Input: CCCCC1CC[C@H]2CCCC(CCC)N12 (some centres undefined) inactive

Entry `CCCC[C@@H](C)/C=C1/CN2CCC[C@H]2[C@@](C)(O)[C@@H]1O` : reported Potency = ? inactive

For CC[C@H](C)[C@H]1NC(=O)[C@@H](NC(=O)C(C)[C@H](O)C(C)C)[C@@H](C)OC(=O)C2COC(=O)CNC(=O)/C=C\[C@]3(CO3)[C@@H](C)Oc3ccc(cc3)[C@H](NC1=O)C(=O)N(C)C(Cc1ccccc1)C(=O)NC(C(C)O)C(=O)N2 (some centres undefined) (X2-T[d(aIle)][X3][ξNMeF][ξT][ξS]; ester 1-C; linker 3-6 via G) , what is its reported Potency? inactive

Potency lookup needed for CCCC[C@@H]1CC[C@H]2CCCC(CCCO)N12 (some centres undefined) , thanks. inactive

I'd like to know its Potency. The compound in question is C1=C2CCCN[C@H]2C2CC1[C@H]1CCCCN1C2 (some centres undefined) inactive

Fill in the blank: the reported Potency of C/C=C1/CN2C3CC1C1=CCC(=O)N4c5ccccc5[C@@]3(C[C@@H]2C2=C[C@H]3C5CC6N(CC[C@@]67c6ccccc6N(C2=O)[C@@H]37)C/C5=C/C)[C@H]14 (some centres undefined) is ____. 14.9 µM (active)

Request the reported Potency associated with `C=C(C)[C@H]1C(=O)c2c3c(cc4c5c(n1c24)[C@@]1(C)[C@@H](CC[C@H]2[C@](C)(/C=C/C=C(\C)C(=O)O)[C@@H](O)CC[C@@]21C)C5)C1=CC(C)(C)OC(C)(C)[C@H]1[C@@H]3O` 8.41 µM (active)

Could you share which Potency value was measured for `C/C(=C\[C@H](C)C(=O)C[C@H](O)CC1CC(=O)NC(=O)C1)[C@@H]1OC(=O)/C=C/CC/C=C/C=C/[C@@H]1C` ? 0.0668 µM (active)

Quick check: Potency of `C=C[C@]12C=CCN3CC[C@@]4(c5ccccc5NC(=O)[C@@H]4C1)[C@@H]32` ? inactive

Source listed as PubChem BioAssay (NCATS).
